These entries and their values trace back to patent US11945816B2.

Reported EC50 values follow for various compounds
Target: EGFR InsH transformed Ba/F3 cells (Homo sapiens, UniProt P00533, DUP773-773)
Sequence (P00533 with tags, fused parts or gaps DUP773-773): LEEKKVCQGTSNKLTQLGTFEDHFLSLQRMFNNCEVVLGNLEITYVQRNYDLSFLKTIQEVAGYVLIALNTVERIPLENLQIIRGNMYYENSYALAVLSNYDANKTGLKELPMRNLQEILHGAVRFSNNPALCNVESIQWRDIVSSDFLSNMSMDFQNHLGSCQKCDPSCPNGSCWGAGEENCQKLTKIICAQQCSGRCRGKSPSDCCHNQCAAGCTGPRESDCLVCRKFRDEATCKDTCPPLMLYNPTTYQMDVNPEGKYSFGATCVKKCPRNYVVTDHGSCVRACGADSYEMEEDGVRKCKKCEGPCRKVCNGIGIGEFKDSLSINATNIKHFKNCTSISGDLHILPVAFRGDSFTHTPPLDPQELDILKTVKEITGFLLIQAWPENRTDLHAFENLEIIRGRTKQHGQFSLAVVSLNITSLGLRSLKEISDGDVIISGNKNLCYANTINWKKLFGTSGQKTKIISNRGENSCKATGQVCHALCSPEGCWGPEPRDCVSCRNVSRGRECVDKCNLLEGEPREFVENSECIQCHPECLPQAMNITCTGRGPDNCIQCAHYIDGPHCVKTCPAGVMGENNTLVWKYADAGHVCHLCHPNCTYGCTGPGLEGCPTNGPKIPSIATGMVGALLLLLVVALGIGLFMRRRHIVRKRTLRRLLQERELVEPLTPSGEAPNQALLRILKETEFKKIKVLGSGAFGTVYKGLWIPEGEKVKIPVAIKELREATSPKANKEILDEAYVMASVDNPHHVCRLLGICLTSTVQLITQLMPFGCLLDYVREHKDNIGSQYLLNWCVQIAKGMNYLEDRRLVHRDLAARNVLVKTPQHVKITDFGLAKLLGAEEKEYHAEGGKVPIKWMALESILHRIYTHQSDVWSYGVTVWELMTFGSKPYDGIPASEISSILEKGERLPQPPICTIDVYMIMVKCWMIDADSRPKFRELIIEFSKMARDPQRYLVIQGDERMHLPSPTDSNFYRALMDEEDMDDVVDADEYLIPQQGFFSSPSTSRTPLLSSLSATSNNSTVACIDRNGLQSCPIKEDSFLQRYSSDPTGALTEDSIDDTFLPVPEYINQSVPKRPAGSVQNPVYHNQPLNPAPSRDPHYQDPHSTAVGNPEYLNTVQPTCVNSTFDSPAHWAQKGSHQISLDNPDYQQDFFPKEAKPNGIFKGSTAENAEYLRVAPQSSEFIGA
Assay: Proliferation inhibition assay, EGFR InsH transformed Ba/F3 cells
Conditions: MTS assay, 72 hours
Method: Cell growth inhibition can be assessed by MTS assay or by Cell Titer Glo Luminescent Cell viability assay (Promega®). […] The viability of the cells are then assessed. […] Cell growth inhibition was assessed by MTS assay for Ba/F3, DFCI58-229, and DFCI127c cells, or by Cell Titer Glo Luminescent Cell viability assay (Promega®) for DFC1362JC cells, 3000 Ba/F3 cells were seeded for per well in 96-well plates, and were exposed to representative compounds of the application (3.3 nM to 10 μM) for 72 hours. […]

Consider the reported EC50 for these compounds:
In [3]: df
Out[3]:
                                   compound         result
0  C=CC(=O)Nc1cc(Nc2ncc3cc(Oc4ccc(F)cc4Cl)c(=O)n(C)c3n2)c(OC)cc1N(C)CCN(C)C [Compound 134]  200 to 600 nM
1  C=CC(=O)Nc1cccc(-n2c(=O)c(Oc3ccc(F)cc3F)cc3cnc(Nc4cnn(C(F)F)c4)nc32)c1 [Compound 5]       < 200 nM
2  C=CC(=O)Nc1cccc(-n2c(=O)c(Oc3c(F)cc(F)cc3F)cc3cnc(Nc4cnn(C)c4)nc32)c1 [Compound 82]       < 200 nM
3  C=CC(=O)Nc1cccc(-n2c(=O)c(Oc3ccc(F)cc3F)cc3cnc(Nc4ccc(N5CCC(N6CCN(C)CC6)CC5)cc4)nc32)c1 [Compound 7]  200 to 600 nM
4  CCC(=O)Nc1cc(Nc2ncc3cc(Oc4ccc(F)cc4F)c(=O)n(C)c3n2)c(OC)cc1N(C)CCN(C)C [Compound 111]      > 1000 nM

Per the record, C=CC(=O)Nc1cccc(-n2c(=O)c(Oc3ccc(F)cc3F)cc3cnc(Nc4cnn(C)c4)nc32)c1 [Compound 2] has EC50 of < 200 nM

Per the record, C=CC(=O)N1CCC(Cn2c(=O)c(Oc3ccc(F)cc3F)cc3cnc(Nc4cnn(C)c4)nc32)C1 (stereo not shown) [Compound 26] has EC50 of > 1000 nM

* * *

Reported pEC50 values follow for various compounds
target: HER2 InsWLV transformed Ba/F3 cells (Homo sapiens, UniProt P04626, INS773WL/M774V); construct: expressed in transfected cells; host or cells: Ba/F3; assay: Proliferation inhibition assay, HER2 InsWLV transformed Ba/F3 cells; type: cell-based; settings: MTS assay, 72 hours, Table 10 key
Sequence (P04626 with tags, fused parts or gaps INS773WL/M774V): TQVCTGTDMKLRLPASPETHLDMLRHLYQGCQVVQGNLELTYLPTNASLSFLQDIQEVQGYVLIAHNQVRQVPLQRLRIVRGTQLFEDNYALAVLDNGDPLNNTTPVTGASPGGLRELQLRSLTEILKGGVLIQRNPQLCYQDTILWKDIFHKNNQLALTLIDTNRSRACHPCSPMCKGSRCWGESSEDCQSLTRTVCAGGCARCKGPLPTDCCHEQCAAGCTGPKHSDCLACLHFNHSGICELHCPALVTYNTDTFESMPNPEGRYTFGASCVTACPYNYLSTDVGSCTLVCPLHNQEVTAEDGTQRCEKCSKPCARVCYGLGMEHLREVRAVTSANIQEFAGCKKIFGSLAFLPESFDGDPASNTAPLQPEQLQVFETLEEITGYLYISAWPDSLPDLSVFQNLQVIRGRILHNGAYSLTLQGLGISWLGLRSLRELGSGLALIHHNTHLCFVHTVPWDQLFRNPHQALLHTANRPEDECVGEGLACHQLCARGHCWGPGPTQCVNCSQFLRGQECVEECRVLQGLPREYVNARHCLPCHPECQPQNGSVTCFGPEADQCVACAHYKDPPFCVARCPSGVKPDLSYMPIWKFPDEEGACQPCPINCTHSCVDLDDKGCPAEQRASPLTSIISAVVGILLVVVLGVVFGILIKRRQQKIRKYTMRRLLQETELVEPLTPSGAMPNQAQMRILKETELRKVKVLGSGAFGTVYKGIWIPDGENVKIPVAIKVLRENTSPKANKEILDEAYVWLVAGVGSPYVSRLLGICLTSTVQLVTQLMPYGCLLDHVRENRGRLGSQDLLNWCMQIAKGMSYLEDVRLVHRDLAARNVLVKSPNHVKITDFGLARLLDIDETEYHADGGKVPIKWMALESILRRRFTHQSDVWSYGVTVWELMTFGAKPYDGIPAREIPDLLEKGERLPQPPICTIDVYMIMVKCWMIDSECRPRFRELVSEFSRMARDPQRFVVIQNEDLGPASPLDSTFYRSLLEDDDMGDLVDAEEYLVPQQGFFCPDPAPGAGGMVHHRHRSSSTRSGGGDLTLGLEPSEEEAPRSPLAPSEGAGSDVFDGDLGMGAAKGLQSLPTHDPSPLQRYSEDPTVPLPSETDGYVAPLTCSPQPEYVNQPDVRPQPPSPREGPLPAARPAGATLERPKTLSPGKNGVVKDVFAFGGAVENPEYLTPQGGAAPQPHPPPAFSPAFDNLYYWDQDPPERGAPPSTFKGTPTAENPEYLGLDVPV
pEC50: −log10 of the molar value.

Consider the reported pEC50 for these compounds:
                               query_smiles  value_type        result
0  C=CC(=O)Nc1cc(Nc2ncc3cc(Oc4ccc(F)cc4F)c(=O)n(C)c3n2)cnc1N(C)CCN(C)C       pEC50        > 6.70
1  C=CC(=O)Nc1cc(Nc2ncc3cc(Oc4cc(F)c(F)cc4F)c(=O)n(C)c3n2)c(OC)cc1N(C)CCN(C)C       pEC50        > 6.70
2  C=CC(=O)Nc1cc(Nc2ncc3cc(Oc4ccc(F)cc4F)c(=O)n(C)c3n2)ccc1CCCN(C)C       pEC50  6.22 to 6.70

Now consider a different compound.
Per the record, `C=CC(=O)Nc1cc(Nc2ncc3cc(Oc4ccc(F)cc4F)c(=O)n(C)c3n2)ccc1N(C)CCN(C)C` has pEC50 of > 6.70

* * *

biological target: EGFR InsSVD (D770_N771insSVD) transformed Ba/F3 cells (Homo sapiens, UniProt P00533, INS770SVD); experiment: Proliferation inhibition assay, EGFR InsSVD transformed Ba/F3 cells; conditions: MTS assay, 72 hours
pEC50: −log10 of the molar value.
Value Type: pEC50

Consider the reported pEC50 for these compounds:
>>> df
                                   compound        result
0  C=CC(=O)Nc1cc(Nc2ncc3cc(Oc4ccc(F)cc4F)c(=O)n(C)c3n2)ccc1CCCN(C)C  6.22 to 6.70
1  C=CC(=O)Nc1cc(Nc2ncc3cc(Oc4ccc(F)cc4F)c(=O)n(C)c3n2)c(OC)cc1C1CCN(C)CC1  6.00 to 6.22
2  C=CC(=O)N1CCC[C@@H](n2c(=O)c(Oc3ccc(F)cc3F)cc3cnc(Nc4cnn(C)c4)nc32)C1        > 6.70
3  C=CC(=O)Nc1cc(Nc2ncc3cc(Nc4ccc(F)cc4F)c(=O)n(C)c3n2)c(OC)cc1OCCN(C)C        > 6.70
4  C=CC(=O)Nc1cc(Nc2ncc3cc(Oc4ccc(C)cc4)c(=O)n(C)c3n2)c(OC)cc1N(C)CCN(C)C        > 6.70
5  C=CC(=O)Nc1cc(Nc2ncc3cc(Nc4ccc(F)cc4F)c(=O)n(C)c3n2)c(OC)cc1N(C)CCN(C)C        > 6.70

Per the record, `C=CC(=O)Nc1cccc(-n2c(=O)c(Oc3ccc(F)cc3F)cc3cnc(Nc4cnn(C)c4)nc32)c1` has pEC50 of > 6.70

Per the record, `CN(C)C/C=C/C(=O)Nc1cccc(-n2c(=O)c(Oc3ccc(F)cc3F)cc3cnc(Nc4cnn(C)c4)nc32)c1` has pEC50 of 6.22 to 6.70

Per the record, `C=CC(=O)Nc1cccc(-n2c(=O)c(Oc3c(F)cc(F)cc3F)cc3cnc(Nc4cnn(C)c4)nc32)c1` has pEC50 of > 6.70

Per the record, C=CC(=O)N1CCCC(n2c(=O)c(Oc3ccc(F)cc3F)cc3cnc(Nc4cnn(C)c4)nc32)CC1 (stereo not shown) has pEC50 of > 6.70

Per the record, `C=CC(=O)Nc1cc(Nc2ncc3cc(Oc4ccc(F)cc4F)c(N)nc3n2)c(OC)cc1N(C)CCN(C)C` has pEC50 of 6.22 to 6.70

Per the record, `C=CC(=O)Nc1ccc(OC)c(Nc2ncc3cc(Oc4ccc(F)cc4F)c(=O)n(CCN(C)C)c3n2)c1` has pEC50 of 6.22 to 6.70

* * *

target: HER2 InsYVMA (A775_G776insYVMA) transformed Ba/F3 cells (Homo sapiens, UniProt P04626, INS775YVMA); construct: expressed in transfected cells; host or cells: Ba/F3; experiment: Proliferation inhibition assay, HER2 InsYVMA transformed Ba/F3 cells; assay type: cell-based; settings: MTS assay, 72 hours, Table 10 key
Sequence (P04626 with tags, fused parts or gaps INS775YVMA): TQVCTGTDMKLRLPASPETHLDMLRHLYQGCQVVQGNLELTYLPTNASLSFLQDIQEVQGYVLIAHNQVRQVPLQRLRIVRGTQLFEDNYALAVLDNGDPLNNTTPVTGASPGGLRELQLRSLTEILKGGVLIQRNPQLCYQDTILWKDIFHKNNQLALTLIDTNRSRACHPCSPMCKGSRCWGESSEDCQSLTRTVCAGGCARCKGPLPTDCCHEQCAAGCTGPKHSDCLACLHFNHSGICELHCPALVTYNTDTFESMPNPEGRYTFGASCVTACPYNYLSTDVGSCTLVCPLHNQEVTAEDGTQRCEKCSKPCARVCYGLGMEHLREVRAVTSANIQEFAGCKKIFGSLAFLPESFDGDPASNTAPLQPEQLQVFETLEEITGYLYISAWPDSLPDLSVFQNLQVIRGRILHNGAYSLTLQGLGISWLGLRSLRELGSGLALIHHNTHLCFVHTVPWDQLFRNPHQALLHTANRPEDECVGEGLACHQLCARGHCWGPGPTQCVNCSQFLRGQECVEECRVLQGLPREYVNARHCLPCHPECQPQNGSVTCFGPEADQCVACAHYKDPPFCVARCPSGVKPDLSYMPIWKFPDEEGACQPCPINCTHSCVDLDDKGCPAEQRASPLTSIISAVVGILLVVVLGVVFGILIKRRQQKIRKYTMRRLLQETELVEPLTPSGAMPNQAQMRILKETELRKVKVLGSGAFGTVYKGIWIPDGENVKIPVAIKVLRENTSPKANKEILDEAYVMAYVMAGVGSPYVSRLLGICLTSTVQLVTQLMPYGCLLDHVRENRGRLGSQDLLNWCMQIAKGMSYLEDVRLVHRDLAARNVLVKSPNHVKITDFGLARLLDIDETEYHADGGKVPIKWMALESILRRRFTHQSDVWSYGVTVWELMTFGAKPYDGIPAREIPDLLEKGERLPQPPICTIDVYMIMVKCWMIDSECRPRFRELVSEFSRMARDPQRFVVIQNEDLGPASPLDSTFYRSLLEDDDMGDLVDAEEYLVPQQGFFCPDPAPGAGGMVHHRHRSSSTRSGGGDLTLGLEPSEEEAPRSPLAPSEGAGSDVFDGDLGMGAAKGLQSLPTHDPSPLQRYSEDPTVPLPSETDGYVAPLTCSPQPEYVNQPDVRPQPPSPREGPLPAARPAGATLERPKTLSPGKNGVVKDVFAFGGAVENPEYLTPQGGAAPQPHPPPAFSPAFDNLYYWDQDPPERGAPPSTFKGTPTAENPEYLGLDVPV
pEC50: −log10 of the molar value.
Reported pEC50 values follow for various compounds

Consider the reported pEC50 for these compounds:
In [3]: df
Out[3]:
                               query_smiles  value_type  result
0  C=CC(=O)Nc1cccc(-n2c(=O)c(Oc3ccc(Cl)cc3F)cc3cnc(Nc4cnn(C)c4)nc32)c1       pEC50  > 6.70
1  C=CC(=O)Nc1cc(Nc2ncc3cc(Oc4ccc(F)cc4Cl)c(=O)n(C)c3n2)c(OC)cc1N(C)CCN(C)C       pEC50  > 6.70
2  C=CC(=O)N1C[C@H](Cn2c(=O)c(Oc3ccc(F)cc3F)cc3cnc(N)nc32)[C@@H](OC)C1       pEC50  > 6.70
3  C=CC(=O)Nc1cc(Nc2ncc3cc(Oc4cc(F)c(F)cc4F)c(=O)n(C)c3n2)c(OC)cc1N(C)CCN(C)C       pEC50  > 6.70

Per the record, `C=CC(=O)Nc1cccc(-n2c(=O)c(Oc3ccc(F)cc3F)cc3cnc(N)nc32)c1` has pEC50 of > 6.70

Per the record, `C=CC(=O)Nc1cc(Nc2ncc3cc(Oc4ccc(F)cc4)c(=O)n(C)c3n2)c(OC)cc1N(C)CCN(C)C` has pEC50 of > 6.70

Per the record, `CC#CC(=O)Nc1cc(Nc2ncc3cc(Oc4ccc(F)cc4F)c(=O)n(C)c3n2)c(OC)cc1N(C)CCN(C)C` has pEC50 of > 6.70

* * *

target: EGFR InsGY (D770delinsGY) transformed Ba/F3 cells (Homo sapiens, UniProt P00533, D770Y/INS769G); experiment: Proliferation inhibition assay, EGFR InsGY transformed Ba/F3 cells; conditions: MTS assay, 72 hours
Sequence (P00533 with tags, fused parts or gaps INS769G/D770Y): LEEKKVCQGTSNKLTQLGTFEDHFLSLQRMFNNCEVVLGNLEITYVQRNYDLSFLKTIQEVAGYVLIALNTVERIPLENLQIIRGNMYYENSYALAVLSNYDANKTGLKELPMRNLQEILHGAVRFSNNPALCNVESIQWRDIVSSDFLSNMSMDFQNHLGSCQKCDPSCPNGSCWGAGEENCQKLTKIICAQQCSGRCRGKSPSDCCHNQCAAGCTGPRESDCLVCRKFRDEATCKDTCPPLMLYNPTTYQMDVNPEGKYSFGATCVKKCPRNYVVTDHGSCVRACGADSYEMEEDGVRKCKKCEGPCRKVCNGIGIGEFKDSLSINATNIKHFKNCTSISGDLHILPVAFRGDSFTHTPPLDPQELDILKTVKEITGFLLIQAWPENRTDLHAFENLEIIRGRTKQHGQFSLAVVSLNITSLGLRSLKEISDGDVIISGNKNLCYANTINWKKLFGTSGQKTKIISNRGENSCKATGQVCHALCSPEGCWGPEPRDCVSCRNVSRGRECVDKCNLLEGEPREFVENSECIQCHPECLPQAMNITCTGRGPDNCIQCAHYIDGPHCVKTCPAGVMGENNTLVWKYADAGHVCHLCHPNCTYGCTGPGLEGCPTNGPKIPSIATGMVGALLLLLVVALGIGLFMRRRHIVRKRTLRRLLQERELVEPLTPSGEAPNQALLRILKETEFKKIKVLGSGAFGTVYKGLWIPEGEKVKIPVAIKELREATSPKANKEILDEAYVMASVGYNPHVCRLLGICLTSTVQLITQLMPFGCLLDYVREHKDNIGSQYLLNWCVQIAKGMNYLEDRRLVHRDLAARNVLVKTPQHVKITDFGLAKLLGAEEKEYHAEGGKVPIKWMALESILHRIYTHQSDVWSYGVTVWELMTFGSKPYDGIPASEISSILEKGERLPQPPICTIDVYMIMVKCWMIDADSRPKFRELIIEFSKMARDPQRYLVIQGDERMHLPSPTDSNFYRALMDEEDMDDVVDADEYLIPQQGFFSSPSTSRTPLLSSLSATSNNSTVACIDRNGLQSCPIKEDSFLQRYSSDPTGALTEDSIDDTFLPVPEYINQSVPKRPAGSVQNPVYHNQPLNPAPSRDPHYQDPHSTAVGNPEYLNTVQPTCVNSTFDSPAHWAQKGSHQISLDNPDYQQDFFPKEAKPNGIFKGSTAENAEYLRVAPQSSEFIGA
pEC50: −log10 of the molar value.
Value Type: pEC50

                                   molecule  value_type  result
0  C=CC(=O)Nc1cccc(-n2c(=O)c(Oc3ccc(F)cc3F)cc3cnc(N)nc32)c1 [Compound 106]       pEC50  > 6.70
1  C=CC(=O)Nc1cc(Nc2ncc3cc(Nc4ccc(F)cc4F)c(=O)n(C)c3n2)c(OC)cc1N(C)CCN(C)C [Compound 141]       pEC50  > 6.70
2  C=CC(=O)Nc1cc(Nc2ncc3cc(Oc4c(F)cc(F)cc4F)c(=O)n(C)c3n2)c(OC)cc1N(C)CCN(C)C [Compound 136]       pEC50  > 6.70

Now consider a different molecule.
Per the record, C=CC(=O)Nc1cc(Nc2ncc3cc(Oc4ccc(F)cc4F)c(N)nc3n2)c(OC)cc1N(C)CCN(C)C [Compound 140] has pEC50 of 6.22 to 6.70
